Data origin: patent US20250154169A1

system: Target C mRNA; test: Splicing RT-qPCR gene panel, Target C canonical junction (CJ) mRNA; format: cell-based, human; conditions: Homo sapiens, Tables 4A/4B, read-out: Target C (IC50, decrease in CJ mRNA, gene panel)
readout type: IC50

Before answering, review these 2 worked examples.
compound: Cc1cn2cc(NC(=O)c3ccc(N4CCNC[C@H]4C)c4cn(C)nc34)cc(F)c2n1 [Compound 447]
assay result: 1 to 10 µM

compound: Cc1cn2cc(NC(=O)c3ccc(N4CC5(N)CC4C5)c4cn(C)nc34)cc(F)c2n1 [Compound 383]
assay result: > 10 µM

The compound listed as Cc1cn2nc(-c3ccc(C(=O)NC4CCNCC4)c4nn(C)cc34)cc(C)c2n1 [Compound 281] shows IC50 equal to 1 to 10 µM
